Target: T1, CRBN, Q96SW2;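 note: pooled lentiviral library of zinc finger degron-EGFP fusions in mCherry-positive Jurkat cells, FACS-sorted after compound exposure, with degron abundance counted by next-generation sequencing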
T1 chain: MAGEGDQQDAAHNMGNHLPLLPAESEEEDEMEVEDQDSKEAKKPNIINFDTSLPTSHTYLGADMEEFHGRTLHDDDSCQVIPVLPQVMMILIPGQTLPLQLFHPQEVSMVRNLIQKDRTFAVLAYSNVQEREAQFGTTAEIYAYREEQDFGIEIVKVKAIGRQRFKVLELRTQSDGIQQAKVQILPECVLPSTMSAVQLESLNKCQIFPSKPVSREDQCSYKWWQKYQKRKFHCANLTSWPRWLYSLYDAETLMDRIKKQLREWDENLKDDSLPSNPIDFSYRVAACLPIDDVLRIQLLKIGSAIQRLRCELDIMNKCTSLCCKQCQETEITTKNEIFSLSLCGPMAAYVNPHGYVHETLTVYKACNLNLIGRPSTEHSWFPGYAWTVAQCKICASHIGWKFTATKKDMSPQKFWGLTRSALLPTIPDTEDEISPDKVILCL
Test: log2 fold change of degron read counts, EGFP-low vs EGFP+ sorted cells (limma voom), compound-induced degradation; higher = more compound-induced degradation of the degron-EGFP fusion; degrons are variants of IKZF1/3 zinc finger 2; compound dose not given here
Details: Jurkat; 18 h; compound: compound 22 (5-morpholino-thalidomide)
Over roughly 8,300 sequences, “log2 fold change of degron read counts, EGFP-low vs EGFP+ sorted cells (limma voom), compound-induced degradation” has its median near -1.1; the highest 2% begin near 3.2. The sample holds the highest values, similar sequences and a random draw of the others, so the mix is not that of the screen.
Entries and their log2 fold change of degron read counts values follow.
Number only, please.

// solved cases for log2 fold change of degron read counts follow
FFCEICGAPFTQKGNLLRHIKL [46F_47F_49E_50I_52G_53A_54P_55F_67L_, Q9UKT9]; 3.34
FMCEICGAPFTQKGNLLRHIKL [46F_47M_49E_50I_52G_53A_54P_55F_67L_, Q9UKT9]; 3.43
FFCEICGHPFTQKGNLLRHIKL [46F_47F_49E_50I_52G_53H_54P_55F_67L_, Q9UKT9]; -0.726
FVCEICGADFTQKGNLLRHIKL [46F_47V_49E_50I_52G_53A_54D_55F_67L_, Q9UKT9]; -0.553
FACDQCGAIFTQKGNLLRHIKL [46F_47A_49D_50Q_52G_53A_54I_55F_67L_, Q9UKT9]; -2.79
FYCEICGADFTQKGNLLRHIKL [46F_47Y_49E_50I_52G_53A_54D_55F_67L_, Q9UKT9]; 1.57

// moving on: another record for log2 fold change of degron read counts
Need log2 fold change of degron read counts, item FRCNICGAMFTQKGNLLRHIKL [46F_47R_49N_50I_52G_53A_54M_55F_67L_, Q9UKT9] -1.24
